meta.source: ChEMBL document CHEMBL3392982

- test protocol: Toxicity in rabbit erythrocytes assessed as induction of cell death at 7.8 to 15.6 uM within 1 hr
- Assay type: cell-based, Oryctolagus cuniculus, Erythrocyte
- particulars: read-out: Activity
measure name: hemolysis at 1 h, up to 15.6 µM (%)
Just the number in %, nothing appended.

Suppose we examine the molecule `COc1c(O)cc2oc3cc(O)c(CC=C(C)C)c(O)c3c(=O)c2c1CC=C(C)C` ; what hemolysis at 1 h, up to 15.6 µM value has been reported?
10.5

====

- test protocol: Toxicity in mouse erythrocytes assessed as induction of hemolysis at 10 and 30 uM incubated for 5 hrs
- Format: cell-based
- particulars: erythrocyte
measure name: Activity

Below, each entry is followed by its recorded Activity result.
compound	result
COc1c(O)cc2oc3c(CN4CCOCC4)c(O)c(CC=C(C)C)c(O)c3c(=O)c2c1CC=C(C)C	Non-toxic
COc1c(O)cc2oc3c(CN4CCCCC4)c(O)c(CC=C(C)C)c(O)c3c(=O)c2c1CC=C(C)C	Non-toxic
COc1c(O)cc2oc3cc(O)c(CC=C(C)C)c(O)c3c(=O)c2c1CC=C(C)C [MANGOSTIN]	Toxic
COc1c(O)cc2oc3c(CN(C)C)c(O)c(CC=C(C)C)c(O)c3c(=O)c2c1CC=C(C)C	Non-toxic
COc1c(O)cc2oc3c(Cc4cc(C(C)(C)C)c(O)c(C(C)(C)C)c4)c(O)c(CC=C(C)C)c(O)c3c(=O)c2c1CC=C(C)C	Non-toxic

Suppose we examine the compound `COc1c(O)cc2oc3c(Cc4cc([C@H]5C[C@@H]6CC[C@@]5(C)C6(C)C)c(O)c([C@@H]5C[C@H]6CC[C@]5(C)C6(C)C)c4)c(O)c(CC=C(C)C)c(O)c3c(=O)c2c1CC=C(C)C` ; what Activity value has been reported?
Non-toxic
